Values from PubChem BioAssay (NCI)

System: A498 renal
experimentNotes: NCI tumour cell line growth inhibition, 48 h
experimentalEndpoint: log10 of TGI (log10 of the value in µM)
Record value = log10 of TGI given in µM.

O=C(OC[C@H]1O[C@@H](OC(=O)c2cc(O)c(O)c(O)c2)[C@H](OC(=O)c2cc(O)c(O)c(O)c2)[C@@H](OC(=O)c2cc(O)c(O)c(O)c2)[C@@H]1OC(=O)c1cc(O)c(O)c(O)c1)c1cc(O)c(O)c(O)c1
1.57
Cn1cc(CNCC2CCN(c3ncc(C(=O)NO)cn3)CC2)c2ccccc21
-1.56
COc1ccc(C2CC(n3nnnc3-c3ccccc3)=NN2)cc1 (centres undefined)
1.74

Input: Given the compound Cc1ccc2c(c1)C(c1cccc3ccccc13)OC2=O (centres undefined) , what is its reported log10 of TGI?
Output: 1.92

Input: For the compound shown here, C=C1C(=O)O[C@H]2C[C@@]3(C)[C@H](O)CCC(=C)[C@@H]3[C@@H](OC(C)=O)[C@H]12 , give the reported log10 of TGI.
Output: 1.65
